Affinity ELISA CPE mutant ratio (1:9, pH 6.0/7.4) values for the binders below.
Molecular target: T1, Ax1 protein, extracellular domain (human, UniProt P30530 26-451)
T1 construct: extracellular domain; also called Axl; Ark
T1 sequence (looked up): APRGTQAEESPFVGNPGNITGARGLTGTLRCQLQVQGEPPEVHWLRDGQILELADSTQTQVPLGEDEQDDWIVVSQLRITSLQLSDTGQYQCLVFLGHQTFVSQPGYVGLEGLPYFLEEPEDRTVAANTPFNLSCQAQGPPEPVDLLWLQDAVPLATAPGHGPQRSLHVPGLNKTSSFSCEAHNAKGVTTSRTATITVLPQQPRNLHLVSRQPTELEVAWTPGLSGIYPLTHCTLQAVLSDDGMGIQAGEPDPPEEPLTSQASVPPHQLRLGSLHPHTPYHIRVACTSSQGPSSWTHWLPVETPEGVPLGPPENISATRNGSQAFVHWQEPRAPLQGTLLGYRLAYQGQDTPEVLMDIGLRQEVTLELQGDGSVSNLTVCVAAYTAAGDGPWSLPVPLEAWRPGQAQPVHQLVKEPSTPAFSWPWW
Assay: ELISA, mutant diluted 1:9
Source text: The DNA encoding the wild-type antibody was evolved to generate a mutant antibody library using Comprehensive Positional Evolution (CPE), which each position in the template antibody is randomized one at a time. Each mutant antibody in the library has only one single point mutation. The mutant antibodies in the library were generated by simultaneously screening for selective binding affinity to Ax1 at pH 6.0 over pH 7.4 by ELISA. Two mutant antibody dilutions were used: 1:3 and 1:9 dilutions.
Respond with the number and no other words.

Field: example entries. Status: answers known.
binder: HC-H100P (antibody, V domains shown, CPE single point mutant) VH: EVQLVQSGAEVKKPGATVKISCKVSGYSFTGHTMNWIRQPPGKGLEWIGLIKPSNGGTSYNQKFKGRVTISADKSISTAYLQWSSLKASDTAMYYCAHGPYESYFAMDYWGQGTLVTVSS VL: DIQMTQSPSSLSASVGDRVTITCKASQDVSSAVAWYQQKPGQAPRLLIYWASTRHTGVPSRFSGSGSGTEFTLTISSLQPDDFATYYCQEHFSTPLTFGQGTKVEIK
reported_measurement: 1.18
--
binder: LC-P095V (antibody, V domains shown, CPE single point mutant) VH: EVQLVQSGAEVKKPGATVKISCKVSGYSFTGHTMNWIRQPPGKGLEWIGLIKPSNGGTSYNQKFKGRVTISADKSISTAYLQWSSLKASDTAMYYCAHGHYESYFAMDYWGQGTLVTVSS VL: DIQMTQSPSSLSASVGDRVTITCKASQDVSSAVAWYQQKPGQAPRLLIYWASTRHTGVPSRFSGSGSGTEFTLTISSLQPDDFATYYCQEHFSTVLTFGQGTKVEIK
reported_measurement: 2.13
--
binder: HC-W110A (antibody, V domains shown) VH: EVQLVQSGAEVKKPGATVKISCKVSGYSFTGHTMNWIRQPPGKGLEWIGLIKPSNGGTSYNQKFKGRVTISADKSISTAYLQWSSLKASDTAMYYCAHGHYESYFAMDYAGQGTLVTVSS VL: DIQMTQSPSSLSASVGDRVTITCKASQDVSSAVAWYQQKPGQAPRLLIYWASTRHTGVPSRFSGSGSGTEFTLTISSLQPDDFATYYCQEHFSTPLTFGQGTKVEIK
reported_measurement: 1.2

# Affinity ELISA CPE mutant ratio (1:9, pH 6.0/7.4) of LC-V029G (antibody, V domains shown, CPE single point mutant) VH: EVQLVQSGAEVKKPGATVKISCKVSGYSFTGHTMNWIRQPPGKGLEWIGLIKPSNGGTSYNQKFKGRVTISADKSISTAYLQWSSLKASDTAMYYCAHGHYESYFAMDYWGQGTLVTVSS VL: DIQMTQSPSSLSASVGDRVTITCKASQDGSSAVAWYQQKPGQAPRLLIYWASTRHTGVPSRFSGSGSGTEFTLTISSLQPDDFATYYCQEHFSTPLTFGQGTKVEIK = 1.8

# Affinity ELISA CPE mutant ratio (1:9, pH 6.0/7.4) of LC-A032L (antibody, V domains shown, CPE single point mutant) VH: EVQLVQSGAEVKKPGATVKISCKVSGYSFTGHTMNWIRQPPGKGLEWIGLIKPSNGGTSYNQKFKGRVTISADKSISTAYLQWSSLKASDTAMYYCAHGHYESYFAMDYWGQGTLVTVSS VL: DIQMTQSPSSLSASVGDRVTITCKASQDVSSLVAWYQQKPGQAPRLLIYWASTRHTGVPSRFSGSGSGTEFTLTISSLQPDDFATYYCQEHFSTPLTFGQGTKVEIK = 2.27

# Affinity ELISA CPE mutant ratio (1:9, pH 6.0/7.4) of LC-H091L (antibody, V domains shown, CPE single point mutant) VH: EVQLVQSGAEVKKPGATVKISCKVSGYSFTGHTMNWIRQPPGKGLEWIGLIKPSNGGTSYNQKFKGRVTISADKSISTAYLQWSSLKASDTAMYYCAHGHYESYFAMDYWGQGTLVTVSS VL: DIQMTQSPSSLSASVGDRVTITCKASQDVSSAVAWYQQKPGQAPRLLIYWASTRHTGVPSRFSGSGSGTEFTLTISSLQPDDFATYYCQELFSTPLTFGQGTKVEIK = 2.44

# Affinity ELISA CPE mutant ratio (1:9, pH 6.0/7.4) of LC-F092C (antibody, V domains shown, CPE single point mutant) VH: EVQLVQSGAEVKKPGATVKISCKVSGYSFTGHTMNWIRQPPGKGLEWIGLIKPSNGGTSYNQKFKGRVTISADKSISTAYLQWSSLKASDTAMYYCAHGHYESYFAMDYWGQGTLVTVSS VL: DIQMTQSPSSLSASVGDRVTITCKASQDVSSAVAWYQQKPGQAPRLLIYWASTRHTGVPSRFSGSGSGTEFTLTISSLQPDDFATYYCQEHCSTPLTFGQGTKVEIK = 4.58
